Values from patent US12516130B2

Target: T1, PSMA (Homo sapiens, UniProt Q04609)
T1 construct: purified extracellular domain of PSMA [residues 44-750; purchased from Caltech Protein Expression Center, CA]; purchased Caltech Protein Expression Center, CA
T1 sequence (Q04609 44-750): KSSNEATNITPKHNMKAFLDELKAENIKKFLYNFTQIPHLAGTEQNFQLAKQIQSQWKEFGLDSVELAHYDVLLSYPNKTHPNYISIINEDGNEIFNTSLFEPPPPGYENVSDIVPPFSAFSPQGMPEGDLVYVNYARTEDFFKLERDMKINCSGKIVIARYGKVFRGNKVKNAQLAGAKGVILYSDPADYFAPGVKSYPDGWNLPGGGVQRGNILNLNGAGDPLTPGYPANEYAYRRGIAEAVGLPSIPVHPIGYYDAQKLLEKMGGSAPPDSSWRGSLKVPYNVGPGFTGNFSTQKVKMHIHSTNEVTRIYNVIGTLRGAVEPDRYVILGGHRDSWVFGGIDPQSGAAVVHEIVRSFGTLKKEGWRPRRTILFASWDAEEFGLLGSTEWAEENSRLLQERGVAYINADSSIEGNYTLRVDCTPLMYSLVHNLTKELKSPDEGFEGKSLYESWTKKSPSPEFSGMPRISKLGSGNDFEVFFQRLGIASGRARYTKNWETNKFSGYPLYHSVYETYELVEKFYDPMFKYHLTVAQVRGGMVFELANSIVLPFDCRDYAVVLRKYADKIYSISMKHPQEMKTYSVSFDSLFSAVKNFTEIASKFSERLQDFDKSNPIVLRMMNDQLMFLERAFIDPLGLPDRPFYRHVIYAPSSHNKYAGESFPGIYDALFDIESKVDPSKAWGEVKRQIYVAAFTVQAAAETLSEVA
Assay: Surface plasmon resonance binding assay
Settings: SPR, immobilized NB, 1:1 Langmuir model, 25° C., means ± SD
assay-readout: Kon (M⁻¹ s⁻¹)
Write the answer as a number in M⁻¹ s⁻¹, unit excluded.

Incoming: Look up Kon for this molecule: NB8: anti-PSMA camel nanobody (VHH, ~16 kDa) selected by phage display; PDB 6XXO (protein) VHH: QVQLQESGGGSVQAGGSLRLSCARSGWPYSTYSMNWFRQAPGKEREAVAGISSTMSGIIFAESKAGQFTISQDNAKNTVYLQMNNLKPEDTAIYYCAARRDYSLSSSSDDFDYWGQGTQVTVSSAAAYPYDVPDYGS
Outgoing: 20000
